test: Metabolic stability in human liver microsomes assessed as parent compound remaining at 3 uM after 2 hrs by LC-MS/MS analysis
Recorded Stability by entry
# output: bare number, implied unit %

[[record]]
smiles_string = "Cc1nc(OCc2ccc(OC(F)(F)F)cc2)c2nc([N+](=O)[O-])cn2c1C"
observed_result = 44


Turning to the following molecule.
Q. Find the recorded Stability belonging to O=c1c2nc([N+](=O)[O-])cn2ccn1Cc1ccc(F)cc1 and report it.
A. 99

###

assay: Metabolic stability in human liver microsomes assessed as parent compound remaining at 3 uM after 2 hrs by LC-MS/MS analysis
Recorded Stability by entry
# output: bare number, implied unit %

Example results:
[[record]]
smiles_string = "O=[N+]([O-])c1cn2ccnc(OCc3ccccc3OC(F)(F)F)c2n1"
observed_result = 51

[[record]]
smiles_string = "Cc1ccc(Cn2ccn3cc([N+](=O)[O-])nc3c2=O)cc1"
observed_result = 97


Q. Find the recorded Stability belonging to Cc1cn2cc([N+](=O)[O-])nc2c(OCc2ccc(OC(F)(F)F)cc2)n1 and report it.
A. 69

###

test: Metabolic stability in CD-1 mouse liver microsomes assessed as parent compound remaining at 3 uM after 2 hrs by LC-MS/MS analysis
Recorded Stability by entry

Example results:
[[record]]
smiles_string = "O=c1c2nc([N+](=O)[O-])cn2ccn1Cc1ccccc1OC(F)(F)F"
parameter = "Stability"
observed_result = "> 99%"

[[record]]
smiles_string = "Cc1cn2cc([N+](=O)[O-])nc2c(OCc2ccc(OC(F)(F)F)cc2)n1"
parameter = "Stability"
observed_result = "7.9%"

[[record]]
smiles_string = "O=c1c2nc([N+](=O)[O-])cn2ccn1Cc1cccc(OC(F)(F)F)c1"
parameter = "Stability"
observed_result = "> 99%"

[[record]]
smiles_string = "Cc1cn2cc([N+](=O)[O-])nc2c(=O)n1Cc1ccc(OC(F)(F)F)cc1"
parameter = "Stability"
observed_result = "> 99%"

[[record]]
smiles_string = "O=[N+]([O-])c1cn2ccnc(OCc3ccccc3OC(F)(F)F)c2n1"
parameter = "Stability"
observed_result = "< 0.5%"

[[record]]
smiles_string = "O=c1c2nc([N+](=O)[O-])cn2ccn1Cc1ccc(F)cc1"
parameter = "Stability"
observed_result = "> 99%"

[[record]]
smiles_string = "O=c1c2nc([N+](=O)[O-])cn2ccn1Cc1ccc(OC(F)(F)F)cc1"
parameter = "Stability"
observed_result = "> 99%"

[[record]]
smiles_string = "Cc1ccc(Cn2ccn3cc([N+](=O)[O-])nc3c2=O)cc1"
parameter = "Stability"
observed_result = "96%"


Turning to the following compound.
Q. Find the recorded Stability belonging to Cc1nc(OCc2ccc(OC(F)(F)F)cc2)c2nc([N+](=O)[O-])cn2c1C and report it.
A. < 0.5%

###

assay: Metabolic stability in CD-1 mouse plasma assessed as parent compound remaining at 3 uM after 2 hrs by LC-MS/MS analysis
parameter: Stability

[[record]]
smiles_string = "Cc1nc(OCc2ccc(OC(F)(F)F)cc2)c2nc([N+](=O)[O-])cn2c1C"
observed_result = "> 99%"

[[record]]
smiles_string = "Cc1cn2cc([N+](=O)[O-])nc2c(=O)n1Cc1ccc(OC(F)(F)F)cc1"
observed_result = "99%"


Q. Find the recorded Stability belonging to O=c1c2nc([N+](=O)[O-])cn2ccn1Cc1cccc(OC(F)(F)F)c1 and report it.
A. 97%

Q. Find the recorded Stability belonging to Cc1cn2cc([N+](=O)[O-])nc2c(OCc2ccc(OC(F)(F)F)cc2)n1 and report it.
A. > 99%

Entry source: ChEMBL document CHEMBL4382237
